# Tested on: TK-10 renal
# protocolNotes: NCI-60 one-dose screen, 48 h (100 = growth as untreated, 0 = no growth, -100 = all killed)
# runConditions: 10 µM unless noted
Compounds without any hit were thinned out: in the full panel of roughly 83,000, 20% have a hit. Calls of active or inactive are those of the source. The calls were made as follows: active = growth percent below 10; inactive = the rest.
experimentalEndpoint: growth

A selection of reference data follows.
# molecule, growth
data = [
    ("COc1ccc(C(=O)/C=C/c2c[n+](=O)c3ccc(F)cc3n2[O-])cc1", "106% (inactive)"),
    ("CC(C)Oc1nc2c(c(=O)n(C)c(=O)n2C)n1C", "95.3% (inactive)"),
    ("COc1cc(/C=N\\NC(=O)CN2CCN(c3cc4c(cc3F)c(=O)c(C(=O)N/N=C/c3ccc(O)c(OC)c3)cn4C3CC3)CC2)ccc1O", "91.7% (inactive)"),
    ("Nc1cc(O)cc2cccnc12", "104% (inactive)"),
    ("O=C1C=CC(=O)c2c1nc1n2CCCC1", "109% (inactive)"),
]

For each of the molecules below, state growth.
1. O=C(CNC1C2CC3CC(C2)CC1C3)Sc1nnc2sc3ccccc3n12 (configuration not stated)
2. O=[N+]([O-])c1c(F)cccc1Nc1cccc(F)c1
3. CN(C)c1ccc(/C=C\C2=[N+](C)c3ccccc3C2(C)C)cc1

Found:
1: 127% (inactive); 2: 113% (inactive); 3: 27.8% (inactive)

For each of the molecules below, state growth.
1. CCOC(=O)N1CCN(c2nc(Nc3cc(C)[nH]n3)c3ccccc3n2)CC1
2. COc1ccc(-c2cn3c(ccc4ccccc43)n2)cc1
3. COc1ccc(/C=C2\CN(C(=O)CCN3CCC(=NO)CC3)C/C(=C\c3ccc(OC)cc3)C2=O)cc1

Found:
["40.9% (inactive)", "126% (inactive)", "21.5% (inactive)"]

Lookup: Quick check: growth of "CC[C@]12C=CCN3CC[C@@]4(c5ccc(OC)cc5N(C)[C@H]4[C@@](O)(C(=O)OC)[C@@H]1OC(=O)CCC(=O)N[C@@H](Cc1c[nH]c4ccccc14)C(=O)OC)[C@@H]32" ?
Found: 87.4% (inactive)

---

# System: UACC-62 melanoma
# protocolNotes: NCI-60 one-dose screen, 48 h (100 = growth as untreated, 0 = no growth, -100 = all killed)
# runConditions: 10 µM unless noted
Compounds without any hit were thinned out: in the full panel of roughly 83,000, 20% have a hit. Activity calls are given as the source filed them. The calls were made as follows: active = growth percent below 10; inactive = the rest.
experimentalEndpoint: growth

# molecule, measurementTarget, growth
data = [
    ("Cc1cc(-c2nc3ccccc3s2)ccc1NC(=O)COc1ccc(Cl)cc1", "UACC-62 melanoma", "96.1% (inactive)"),
    ("COc1ccc(-c2nn(-c3ccccc3)cc2/C=C2\\SC(=O)NC2=O)cc1", "UACC-62 melanoma", "89.2% (inactive)"),
    ("CC[C@@H](C)OC(=O)c1nn(C(C)=O)c2ccccc12", "UACC-62 melanoma", "99.2% (inactive)"),
]

Now take the following molecule into account.
Lookup: Quick check: growth of C=C1CCC2C3(C)COC(c4ccccc4Br)OC3CCC2(C)C1C/C=C1/C(=O)OCC1OC(C)=O (centres undefined) ?
Found: -18.4% (active)

---

# Tested on: HS 578T breast
# protocolNotes: NCI-60 one-dose screen, 48 h (100 = growth as untreated, 0 = no growth, -100 = all killed)
# runConditions: 10 µM unless noted
Compounds without any hit were thinned out: in the full panel of roughly 83,000, 20% have a hit. Active and inactive are the calls of the source. Rule for the calls: active = growth percent below 10; inactive = the rest.
experimentalEndpoint: growth

# compound, experimentalEndpoint, observedValue
data = [
    ("Cc1cc2c(cc1C)NC1=C(N2)OC(c2c3ccccc3cc3ccccc23)C1=O (stereo not given)", "growth", "32.5% (inactive)"),
    ("Cc1ccc(/C=C2\\Oc3cc(OCC(=O)c4ccc(Cl)cc4)ccc3C2=O)cc1", "growth", "95.4% (inactive)"),
    ("CCCCCCCCCCCCCCCC[N+]1(CC)CCCC1", "growth", "-8.22% (active)"),
    ("COc1cc2c(=O)n(CC3CCCCC3)c3c4cc[nH]c4ncc3c2cc1OC", "growth", "-4.62% (active)"),
    ("CCN(CC)CCCNc1cc(OC)cc2nc3cc(Cl)ccc3nc12", "growth", "23.3% (inactive)"),
    ("Cn1c(=O)c2c(ncn2CC[N+](C)(C)C)n(C)c1=O", "growth", "110% (inactive)"),
    ("O=[N+]([O-])c1cccc(-c2nc3sccn3c2-c2ccnc(NCCCNS(=O)(=O)c3ccc(Br)cc3)n2)c1", "growth", "87.7% (inactive)"),
    ("CNc1cc2nc3cc(NC)c(C)cc3cc2cc1C", "growth", "13.1% (inactive)"),
    ("C/C(=C(/c1ccc(O)cc1)c1ccc(OCCN(C)C)cc1)c1ccccc1", "growth", "90% (inactive)"),
    ("COc1cc(/C=C2\\CN(C(=O)CCN3CCC(=NO)CC3)C/C(=C\\c3cc(OC)c(OC)c(OC)c3)C2=O)cc(OC)c1OC", "growth", "6.39% (active)"),
]

For each of the compounds below, state growth.
1. O=C1CC(c2nc3ccccc3[nH]2)CN1C1CCCCC1 (stereo not given)
2. CN1CCN(Cc2ccc(NC(=O)c3[nH]ncc3Nc3ccnc4ccsc34)cc2)CC1
3. CCOC(=O)C(Cc1cc(I)c(O)c(I)c1)NC(=O)c1ccccc1 (stereo not given)
4. Cn1cc(-c2ccc(-c3cn(C)c4ncccc34)[nH]2)c2cccnc21
5. CC1(C)CC(C(=O)OCCCCCCCCCCC[P+](c2ccccc2)(c2ccccc2)c2ccccc2)C(C)(C)N1O (stereo not given)
6. O=C1C(Cl)=C(Cl)C(=O)c2c1nc1n2CCCC1

Found:
1: 102% (inactive); 2: 54.6% (inactive); 3: 87% (inactive); 4: 45.7% (inactive); 5: -44% (active); 6: 105% (inactive)

For each of the compounds below, state growth.
1. CC/C=C\C[C@H](F)C/C=C1/C(=O)C=C[C@@H]1C/C=C\CCCC(=O)OC
2. OCC1C2C=CC(C2)C1CO (stereo not given)
3. Cc1ccc(C2CC3c4ccccc4C2C2CCCCN32)cc1 (stereo not given)
4. CCC(=O)OCc1cccc(OC)c1

Found:
1. 45.2% (inactive)
2. 104% (inactive)
3. 93.3% (inactive)
4. 101% (inactive)

---

# System: COLO 205 colon
# protocolNotes: NCI-60 one-dose screen, 48 h (100 = growth as untreated, 0 = no growth, -100 = all killed)
# runConditions: 10 µM unless noted
About 83,000 compounds went through this panel and 20% of them were active in at least one assay; those are over-represented in the sample as a whole. Activity calls are given as the source filed them. The calls were made as follows: active = growth percent below 10; inactive = the rest.
experimentalEndpoint: growth

A selection of reference data follows.
# structureAsSmiles, growth
data = [
    ("Nc1ccc(Nc2nccc(-c3ccc4ccccc4c3)n2)cc1", "49.4% (inactive)"),
    ("C[C@]12C[C@@H](c3ccoc3)OC(=O)[C@@H]1CC[C@]1(C)[C@@H]2CC[C@@H](O)[C@]1(C)O", "40.9% (inactive)"),
]

Now take the following compound into account.
Lookup: Quick check: growth of "COc1ccc(-c2c(C)noc2-c2ccc(O)cc2O)cc1" ?
Found: 121% (inactive)

---

# System: HOP-62 NSCLC
# protocolNotes: NCI-60 one-dose screen, 48 h (100 = growth as untreated, 0 = no growth, -100 = all killed)
# runConditions: 10 µM unless noted
About 83,000 compounds went through this panel and 20% of them were active in at least one assay; those are over-represented in the sample as a whole. Activity calls are given as the source filed them. The calls were made as follows: active = growth percent below 10; inactive = the rest.
Kindly state growth for each of the entries shown.

# compound, experimentalEndpoint, observedValue
rows = [
    ("COc1ccc(C2CC(=O)Nc3c2c(C)nn3-c2nc3ccccc3[nH]2)cc1 (centres undefined)", "growth", "116% (inactive)"),
    ("C=C1CCC2C3(C)COC(c4ccc(OC)cc4Br)OC3CCC2(C)C1/C=C/C1=CCOC1=O (centres undefined)", "growth", "97.3% (inactive)"),
    ("Nc1nc(-c2ccc(F)cc2)cc(-c2cnn(-c3ccccc3)n2)n1", "growth", "101% (inactive)"),
]

Now take the following compound into account.
Lookup: Quick check: growth of "CCNS(=O)(=O)c1ncnc2nc[nH]c12" ?
Found: 105% (inactive)

---

# Test system: HCT-116 colon
# protocolNotes: NCI-60 one-dose screen, 48 h
# runConditions: 10 µM unless noted
Compounds without any hit were thinned out: in the full panel of roughly 83,000, 20% have a hit. The source made the active and inactive calls. Rule for the calls: active = growth percent below 10; inactive = the rest.
Choose the fitting class; nothing outside active, inactive is accepted.

Observe how each entry below is paired with its result.
# structureAsSmiles, labelValue
records = [
    ("Cn1cc(-c2csc(-c3cn(C)c4ncccc34)n2)c2ccccc21", "inactive"),
    ("CC(=O)N1CC(Nc2ccc(OC(F)(F)F)cc2)=CC1=O", "inactive"),
    ("Cn1c2ccccc2c2c3[nH]c(=O)[nH]c(=O)c3c3c4ccccc4n(C)c3c21", "inactive"),
    ("O=[N+]([O-])c1cccc(-c2nc3sccn3c2-c2ccnc(NCCCNS(=O)(=O)c3ccc(Br)cc3)n2)c1", "inactive"),
    ("Nc1ccc(Nc2nccc(-c3ccc4ccccc4c3)n2)cc1", "inactive"),
]

Could you now consider this next molecule?
Lookup: Which outcome was assigned to "CNc1nc(C)c(-c2nc(Nc3cccc(S(N)(=O)=O)c3)ncc2F)s1" in this test?
Found: active

The reported measurements were obtained from PubChem BioAssay (NCI).
